Provenance of the data: paper PMC4212957

Target: HLA-DRB1*12:02 (Homo sapiens, UniProt P01903+P01911, A100R/A169T/D57E/D86V/F55L/H45Y/I96F/K41T/L162R/M171V/P40S/Q125H/Q178H/Q39Y/Q99D/R42G/S66L/T262R/V114A/V67L/W38E/Y59H/Y61H/Y89S)
Assay: Peptide/HLA-DR binding, competitive ELISA
Details: ratio IC50 of peptide / IC50 of reference peptide TFR 141–155, lower = higher affinity, ratio 20 or less high, 20–100 moderate, three independent experiments
measured endpoint: Relative binding affinity of peptide to HLA-DR molecules DRB1*1202

Quick check: Relative binding affinity of peptide to HLA-DR molecules DRB1*1202 of 10: SseB overlapping library peptide, residues 91–110 (GDAKTKEEVPEDVIKYMRDN) [Peptide 10] ?
> 136

So what's the measured Relative binding affinity of peptide to HLA-DR molecules DRB1*1202 for this one? 4: SseB overlapping library peptide, residues 31–50 (DDLSQQNPFAEGYGVLLILL) [Peptide 4]
> 136

Endpoint output: Relative binding affinity of peptide to HLA-DR molecules DRB1*1202 of 8: SseB overlapping library peptide, residues 71–90 (ARNTQEKSNEMDEVIAKAAK) [Peptide 8] . Value?
> 136
